# System: A498 renal
# test description: NCI-60 one-dose screen, 48 h
# experimental context: 10 µM
The panel holds about 83,000 compounds, 20% with a hit somewhere; the sample as a whole holds those more often. Calls of active or inactive are those of the source. The calls were made as follows: active = growth percent below 10; inactive = the rest.
Outcomes: active, inactive

* Oc1ccc(Cn2cc3c(c2-c2ccccc2)CCc2cnoc2-3)cc1 | inactive
* CC1=CSC2=NC(c3ccc(Cl)c(Cl)c3)=CC(c3ccc(Cl)cc3)N12 (stereo not drawn) | active
* O=C(Nc1cccc([N+](=O)[O-])c1)NN1CCCCCC1 | inactive
* CCCc1ccnc(NS(=O)(=O)c2ccc(N)cc2)n1 | inactive
* NC1CCC(Nc2nc(NCc3ccc(-c4ccccc4O)nc3)c3ncn(C4CCCC4)c3n2)CC1 (stereo not drawn) | active
* NS(=O)(=O)c1ccc(N2N=C(c3ccc(-c4ccccc4)cc3)CC2c2ccc(Cl)cc2)cc1 (stereo not drawn) | inactive
* CC(C)c1ncc(CO)n1Cc1c(Cl)cccc1Cl | inactive
* Nc1cc(O)cc(O)c1 | inactive
* CCCCN(CCCC)c1ccc(C(=NC(C)CCCN(CC)CC)c2ccc(N(C)C)cc2)cc1 (stereo not drawn) | active
* CC(=O)Nc1nc(C)c(C(=O)N/N=C/c2cccn2C)s1 | inactive
* COc1cccc(-c2nnc(COc3ccc(-c4nc5ccc(C)cc5[nH]4)cc3OC)o2)c1 | inactive
* COc1ccc(S(=O)(=O)Nc2cc(/C=C\c3cc(OC)c(OC)c(OC)c3)ccc2OC)cc1 | active
* CCCCCCCCCCCC(=O)NCCCN(C)C | inactive
